Source listed as paper PMC3871529.

Molecular target: LasR (Pseudomonas aeruginosa, UniProt P25084)
Construct: expressed in transfected cells; host or cells: Escherichia coli JLD271 carrying pAL105 (pSB401-derivative, lasR+ lasI::luxCDABE)
Sequence (P25084 whole entry): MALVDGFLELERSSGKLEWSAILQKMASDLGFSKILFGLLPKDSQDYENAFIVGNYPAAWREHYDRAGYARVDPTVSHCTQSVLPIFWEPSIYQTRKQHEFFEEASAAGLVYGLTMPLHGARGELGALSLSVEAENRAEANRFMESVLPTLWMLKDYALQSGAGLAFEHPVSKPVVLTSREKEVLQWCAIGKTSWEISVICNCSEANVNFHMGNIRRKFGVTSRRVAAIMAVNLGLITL
Assay: E. coli bioindicator expressing LasR (pAL105, lasI::luxCDABE luminescence)
Format: cell-based
Conditions: OC12-HSL 100 µM; QSIs at 0.1 mg/ml, naringenin and naringin at 0.5 mg/ml
assay_metric: effect on LasR functionality (lux luminescence)

- CN(C)CCc1ccc(O)cc1 [Compound 3499, hordenine]: significant impact
- C[C@]12CC[C@@H]3c4ccc(O)cc4CC[C@H]3[C@@H]1C[C@@H](O)[C@@H]2O [Estriol, estriol]: significant impact

* * *

System: Agrobacterium biosensor cells
Experiment: Minimal inhibitory concentration (MIC)
Assay type: cell-based, Agrobacterium tumefaciens
Settings: Agrobacterium; 10^5 CFU/ml, 36 h at 30°C; read-out: MIC
Could you please report measured MIC for the items listed next?
The figure you give is taken to be in µg/mL; do not add the unit.

Complete the entry with MIC for CC(C)CCC[C@@H](C)[C@H]1CCC2C3CC=C4C[C@@H](Cl)CC[C@]4(C)C3CC[C@@]21C (stereo partly shown)
100

Read off the recorded MIC for C[C@H](NC[C@H]1Cc2ccccc2N1)c1cccc2ccccc12 [(R,S)-1248]
100

Report MIC for O=[N+]([O-])c1cc[n+]([O-])cc1 [Compound 4-NPO, 4-nitropyridine-N-oxide, reference compound]
25

Supply MIC value. Item: C[C@@H](NC[C@H]1Cc2ccccc2N1)c1cccc2ccccc12 [(R,R)-1248]
100

Quick one: give measured MIC for CC(C)CCC[C@@H](C)[C@H]1CCC2C3CCC4CC(=O)CC[C@]4(C)C3CC[C@@]21C (stereo partly shown)
12.5

Quick one: give measured MIC for Cc1ccc(S(=O)(=O)CCC(=O)c2ccccc2)cc1
3

In one line, give reported MIC of the entry C[C@@H](NC[C@@H]1Cc2ccccc2N1)c1cccc2ccccc12 [(S,R)-1248] .
100

Name the recorded MIC of the item C[C@H](NC[C@@H]1Cc2ccccc2N1)c1cccc2ccccc12 [(S,S)-1248] in your answer.
100

* * *

Test system: A. tumefaciens NT1(pZLR4) traG-lacZ reporter fusion
Test: QSI activity on A. tumefaciens AHL-bioindicator (traG-lacZ β-galactosidase)
Format: cell-based, Agrobacterium tumefaciens
Conditions: Agrobacterium tumefaciens, read-out: inhibition (%) at 100 µg/ml
Quick rule for you: inhibition at 100 µg/mL at 20% or higher means true, lower means false.

Entry C[C@H](NC[C@H]1Cc2ccccc2N1)c1cccc2ccccc12 [(R,S)-1248] : is its inhibition at 100 µg/mL no less than 20%?
false

Given CC(C)CCC[C@@H](C)[C@H]1CCC2C3CCC4CC(=O)CC[C@]4(C)C3CC[C@@]21C (some centres unmarked) , state whether its inhibition at 100 µg/mL is at least 20%.
true

Reported inhibition at 100 µg/mL at or above 20%? CN(C)CCc1ccc(O)cc1
false

Form field: inhibition at 100 µg/mL at least 20%? Entry: C[C@@H](NC[C@H]1Cc2ccccc2N1)c1cccc2ccccc12 [(R,R)-1248]
false

Is reported inhibition at 100 µg/mL greater than or equal to 20% here: COc1nc([N+](=O)[O-])nn1[C@H]1C[C@H](O)[C@@H](CO)O1
false

Is inhibition at 100 µg/mL for CCC12CCCN3CCC4(C(=C(C(=O)OC)C1)Nc1ccccc14)C32 (centres unmarked) at or above 20%?
false

Test whether the compound Cc1cn(COCCSc2ccccc2)c(=O)[nH]c1=O records inhibition at 100 µg/mL of 20% or higher.
true

Dear colleague, could you confirm whether C=C[C@H]1CN2CC[C@H]1C[C@H]2[C@H](O)c1ccnc2ccc(OC)cc12 has inhibition at 100 µg/mL at or above 20%?
false

* * *

Target: RhlR (Pseudomonas aeruginosa)
Construct: expressed in transfected cells; host or cells: Escherichia coli JLD271 carrying pAL101 (pSB401-derivative, rhlR+ rhlI::luxCDABE)
Sequence (P54292 whole entry): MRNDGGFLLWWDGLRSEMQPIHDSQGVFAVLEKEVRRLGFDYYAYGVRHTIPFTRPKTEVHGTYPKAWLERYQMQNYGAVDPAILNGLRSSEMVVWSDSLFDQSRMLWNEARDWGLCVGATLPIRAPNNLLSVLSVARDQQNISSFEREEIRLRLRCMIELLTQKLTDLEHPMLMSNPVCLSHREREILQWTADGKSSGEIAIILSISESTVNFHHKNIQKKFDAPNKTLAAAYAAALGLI
Assay: E. coli bioindicator expressing RhlR (pAL101, rhlI::luxCDABE luminescence)
Format: cell-based
Conditions: C4-HSL 10 µM; QSIs at 0.1 mg/ml, naringenin and naringin at 0.5 mg/ml
assay_metric: effect on RhlR functionality (lux luminescence)

- CN(C)CCc1ccc(O)cc1 [Compound 3499, hordenine]: significant impact
- C[C@]12CC[C@@H]3c4ccc(O)cc4CC[C@H]3[C@@H]1C[C@@H](O)[C@@H]2O [Estriol, estriol]: significant impact

* * *

Test system: Agrobacterium biosensor cells
Test: Minimal inhibitory concentration (MIC)
Format: cell-based, Agrobacterium tumefaciens
Details: Agrobacterium; 10^5 CFU/ml, 36 h at 30°C; read-out: MIC
Protocol: Aside from the effect of QSI on QS regulation, the toxicity of these compounds was tested on bacterial cells by measuring two parameters: the minimal inhibitory concentration (MIC) and minimal bactericidal concentration (MBC). MIC, which is the lowest concentration of QSI (µg/ml) inhibiting any visible culture after 36 h of incubation at 30°C, was estimated by culturing 10^5 CFU/ml of the Agrobacterium biosensor cells in the presence of different concentrations of the QSI. […]
assay_metric: MIC

# assay system Agrobacterium biosensor cells: give MIC of CC(NCC1Cc2ccccc2N1)c1cccc2ccccc12 (centres unmarked)
> 100 µg/mL

Report value: MIC, system: Agrobacterium biosensor cells, compound: CC/C=C\C[C@H]1C(=O)CC[C@@H]1CC(=O)O [Jasmonic acid, jasmonic acid, reference compound]
> 100 µg/mL

Give MIC for this entry on Agrobacterium biosensor cells: C[C@]12CC[C@@H]3c4ccc(O)cc4CC[C@H]3[C@@H]1C[C@@H](O)[C@@H]2O
> 100 µg/mL

Name the value of MIC reported for CN1CCc2c([nH]c3ccccc23)C1 when tested on Agrobacterium biosensor cells.
> 100 µg/mL

Identify measured MIC obtained with Agrobacterium biosensor cells for C=C[C@H]1CN2CC[C@H]1C[C@H]2[C@H](O)c1ccnc2ccc(OC)cc12 .
> 100 µg/mL

Print Agrobacterium biosensor cells MIC for Cc1cn(COCCSc2ccccc2)c(=O)[nH]c1=O .
> 100 µg/mL

Name the recorded MIC of CCC12CCCN3CCC4(C(=C(C(=O)OC)C1)Nc1ccccc14)C32 (centres unmarked) , assay system Agrobacterium biosensor cells.
> 100 µg/mL

Enter measured MIC, system Agrobacterium biosensor cells, for the compound shown: COc1nc([N+](=O)[O-])nn1[C@H]1C[C@H](O)[C@@H](CO)O1
> 100 µg/mL

State measured MIC of the compound C[C@]12CC[C@@H]3c4ccc(O)cc4CC[C@H]3[C@@H]1CC[C@@H]2O with Agrobacterium biosensor cells.
> 100 µg/mL

State measured MIC of the compound CC1C2CCC3C4CC=C5CC(N)CCC5(C)C4CCC32CN1C.Cl (centres unmarked) with Agrobacterium biosensor cells.
> 100 µg/mL

Using Agrobacterium biosensor cells as the test system, report measured MIC of CN(C)CCc1ccc(O)cc1 .
> 100 µg/mL
